Field: log10 TGI. Provide a value for each of the compounds that follow.
Tested on: MDA-N
Assay: NCI tumour cell line growth inhibition, 48 h
Log scale reminder: TGI in µM, then log10 taken.

Note to self: log10 TGI recorded for O=C(Nc1cccc2nsnc12)c1cc2c(cc1Cl)Sc1nccn1S2(=O)=O was 1.54

Value of measured log10 TGI for the entry CN(C)c1ccc(C(=NNC(=O)c2cc3ccccc3[nH]2)c2ccc(N(C)C)cc2)cc1 : 0.17

Briefly, log10 TGI measured for CC1=NNC(N)=N/C1=C/C(Sc1ccc(Cl)cc1)c1cccs1 (stereo not drawn) : 1.93

Note to self: log10 TGI recorded for Cc1[nH]c(=O)nc(N/N=C/c2ccc(Cl)c(Cl)c2)c1C(=O)Nc1ccc(Cl)c(Cl)c1 was 1.60

log10 TGI measured on COc1cc(C(c2cc3c(cc2O)OCO3)N2CCCC2)cc(OC)c1OC (stereo not drawn) = 1.45

For reference, reported log10 TGI for CCOC(=O)/C=C1\Nc2ccccc2C12CCc1c([nH]c3ccccc13)C2C(=O)OCC (stereo not drawn) stands at 1.91

====

For each of the molecules below, state its TGI.
System: SNB-19 CNS
Experiment: NCI tumour cell line growth inhibition, 48 h

TGI reading for COc1cc(OC)c(CSCC(NC(=O)OCC2c3ccccc3-c3ccccc32)C(=O)O)c(OC)c1 (stereo unspecified) : > 10 µM

Sure, the documented TGI for O=C(c1cccs1)N(C(=S)N1CCN(c2ccccc2)CC1)c1ccccc1 is > 100 µM

The molecule listed as Cc1ccc(Nc2nc(=O)[nH]c(=O)[nH]2)cc1N shows TGI equal to > 100 µM

Form: molecule = O=C(N[C@@H]1CCCc2ccccc21)[C@H](CCC(=O)N1CCN(C2CCCCC2)CC1)N1C(=O)[C@@H](N2C(=O)OC[C@@H]2c2ccccc2)[C@H]1/C=C/c1ccccc1 ; TGI = 25.2 µM

Summary for this molecule, Cc1cc(N(CCC#N)S(=O)(=O)c2ccccc2)ccc1C=O : TGI is > 100 µM

The molecule identified as COc1cc2ccn3c4cc(OC)c(OC)cc4cc3c2cc1OC registered its TGI at > 100 µM

Form: molecule = Cn1c(=O)c2c3oc(=O)cc(O)c3c(=O)n3c4ccccc4n(c1=O)c23 ; TGI = > 100 µM

Data point: COc1ccc(Cn2nc(OCc3ccccn3)c3cc([N+](=O)[O-])ccc32)cc1 ; TGI = > 100 µM

Briefly, TGI measured for O=c1c(Cc2ccc(Cl)cc2)nnc2sc(-c3ccc([N+](=O)[O-])cc3)nn12 : > 100 µM

Form field TGI, entry Cc1cc(NS(=O)(=O)c2ccc(Nc3c4ccccc4nc4c(C(=O)NCCN(C)C)ccc(Cl)c34)cc2)no1 : 9.68 µM

The reported value for Cc1ncc([N+](=O)[O-])n1CCN=[N+]=[N-] in terms of TGI is > 100 µM

# molecule CCOC(=O)c1cc(-c2ccc(OC)c(OC)c2)c[nH]1 ; its TGI = > 10 µM

TGI for CC(=O)O[C@]12CCCCCCC1C1(O)C(O)CCC[C@H]12 (stereo partly specified) is > 100 µM

Data point: CCN(CC)CCC(=O)Nc1ccc(Cn2nnc3c2C(=O)c2nnn(Cc4ccc(NC(=O)CCN(CC)CC)cc4)c2C3=O)cc1 ; TGI = 0.373 µM

Reported TGI of O=C(Cn1c2ccc(Br)cc2c2nc3ccccc3nc21)NC1CCCCC1 : > 100 µM

// TGI value for COc1cc(N=Nc2cccc(S(=O)(=O)O)c2)c(C)cc1N=Nc1ccc(/C=C/c2ccc(N=[N+]([O-])c3ccc(/C=C/c4ccc(N=Nc5cc(C)c(N=Nc6cccc(S(=O)(=O)O)c6)cc5OC)cc4)c(S(=O)(=O)O)c3)cc2S(=O)(=O)O)cc1 : > 100 µM

TGI reported for this molecule C=C1C(=O)O[C@H]2C1[C@H](OC(=O)/C(C)=C\COC(C)=O)C[C@]1(CO1)[C@@H]1[C@H](O)[C@H]3O[C@@]3(C)[C@@H]12 (stereo partly specified) : > 100 µM

TGI reading for NC(Cc1nn[nH]n1)C(=O)O (stereo unspecified) : > 100 µM

Input Cn1c(N)c(/C=N/NC(=O)CC#N)c(=O)n(C)c1=O . Output TGI: > 100 µM

The value of TGI measured for the molecule Cc1nc2c(n1Cc1ccc(Cl)cc1)C(=O)c1ccccc1C2=O turned out to be > 75 µM

The recorded TGI for entry COc1ccccc1Cn1cc2c(c1)-c1oncc1CC2 equals > 100 µM

// field: TGI; key: Cc1ccc(S(=O)(=O)C(C#N)c2nc3ccccc3nc2-n2cccn2)cc1 (stereo unspecified) ; value = > 100 µM

Sample O=C1CCSSCCC(=O)Nc2ccccc2N1 ; TGI observed: > 100 µM

// TGI lookup, molecule = CCCCCCCCCCCCOC1C(COCCN2CCCC2)OC2OC(C)(C)OC21 (stereo unspecified) , result: 10.2 µM

TGI reported for this molecule O=C1c2cc3c(cc2CC12Cc1cc4c(cc1C2)CCC4)CCC3 : > 100 µM

The reported value for CCCCn1cc(C(=O)O)c(=O)c2c3sccc3ccc21 in terms of TGI is > 100 µM
